Below, each entry is listed with its recorded IC50.
- TARGET_ENTITY: human JAK3 (a.a. 781-1124) (Homo sapiens, UniProt P52333)
- Construct: JAK3 (a.a. 781-1124); His tag (N); made in house; host or cells: insect cells (baculovirus)
- Sequence (P52333 781-1124): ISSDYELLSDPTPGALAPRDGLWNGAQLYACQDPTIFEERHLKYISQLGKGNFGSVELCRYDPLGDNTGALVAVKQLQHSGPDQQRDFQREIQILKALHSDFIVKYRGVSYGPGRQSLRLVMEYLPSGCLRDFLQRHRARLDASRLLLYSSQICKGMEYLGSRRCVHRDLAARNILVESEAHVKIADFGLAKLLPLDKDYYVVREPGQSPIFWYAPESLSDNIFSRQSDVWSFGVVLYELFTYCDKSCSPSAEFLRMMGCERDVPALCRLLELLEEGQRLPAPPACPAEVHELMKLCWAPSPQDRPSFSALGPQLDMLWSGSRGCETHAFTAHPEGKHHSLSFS
- METHOD: In vitro JAK kinase assay (HTRF, phosphorylation of a biotinylated peptide), JAK3
- Type: biochemical
- CONDITION_PARAMETERS: method AA1 (3 μM ATP) or AA2 (1000 μM ATP), not stated per value
Structures can show the parent of a compound that is named as a salt.

COMPOUND | IC50
O=C(CC1CCN(c2cnccn2)CC1)Nc1ccc2cc1CCc1cncc(c1)Nc1ncc(Cl)c(n1)N2 [Example A171, tris(trifluoroacetate)] | > 1000 nM
O=C(CC1CCN(C(=O)c2ccc(F)cc2F)CC1)Nc1ccc2cc1CCc1cncc(c1)Nc1ncc(Cl)c(n1)N2 [Example A194, bis(trifluoroacetate)] | > 200 nM
COc1ccc2cc1Nc1nc(ncc1Cl)Nc1cccc(c1)CC2 [Example A25, trifluoroacetate] | 14 nM
O=C(CC1CCN(S(=O)(=O)c2ccco2)CC1)Nc1ccc2cc1CCc1cncc(c1)Nc1ncc(Cl)c(n1)N2 [Example A201, bis(trifluoroacetate)] | > 200 nM
O=C(CC1CCN(c2ccnc(F)c2)CC1)Nc1ccc2cc1CCc1cncc(c1)Nc1ncc(Cl)c(n1)N2 [Example A244, tris(trifluoroacetate)] | > 400 nM
CC(C)(C)OC(=O)N1CCN(C(=O)COc2ccc3cc2CCc2cccc(c2)Nc2ncc(Cl)c(n2)N3)CC1 [Example A17, trifluoroacetate] | 217 nM

====

Below, each entry is listed with its recorded pIC50.
- TARGET_ENTITY: human JAK2 (a.a. 828-1132) (Homo sapiens, UniProt O60674)
- Construct: JAK2 (a.a. 828-1132); His tag (N); made in house; host or cells: insect cells (baculovirus)
- Sequence (O60674 828-1132): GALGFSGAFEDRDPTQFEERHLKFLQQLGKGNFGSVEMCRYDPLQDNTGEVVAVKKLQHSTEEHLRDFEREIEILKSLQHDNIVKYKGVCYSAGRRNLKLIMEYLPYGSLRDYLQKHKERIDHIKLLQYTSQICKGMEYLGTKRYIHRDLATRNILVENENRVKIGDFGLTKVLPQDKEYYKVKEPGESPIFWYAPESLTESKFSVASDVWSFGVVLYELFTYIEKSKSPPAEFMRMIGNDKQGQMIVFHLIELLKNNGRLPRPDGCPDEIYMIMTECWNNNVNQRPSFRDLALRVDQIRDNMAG
- METHOD: In vitro JAK kinase assay (HTRF, phosphorylation of a biotinylated peptide), JAK2
- Format: biochemical
- CONDITION_PARAMETERS: Table D1
pIC50: −log10 of the molar value.
READOUT_LABEL: pIC50

MOLECULE | READOUT_LABEL | QUAL | RESULT_NUMBER
O=C(c1cnccn1)N1CCC(CCOc2ccc3cc2CCc2cncc(c2)Nc2ncc(Cl)c(n2)N3)CC1 [Example D177, tris(trifluoroacetate)] | pIC50 | = | 6.58
N#Cc1cccc(NC(=O)N2CC[C@H](CC(=O)Nc3ccc4cc3CCc3cncc(c3)Nc3ncc(Cl)c(n3)N4)C2)c1 [Example D99, bis(trifluoroacetate)] | pIC50 | = | 6.97
Cc1cc(C(=O)N2CCC[C@@H](CC(=O)Nc3ccc4cc3CCc3cncc(c3)Nc3ncc(Cl)c(n3)N4)C2)no1 [Example D208, bis(trifluoroacetate)] | pIC50 | = | 7.82
O=C(C[C@H]1CCN(C(=O)c2ccno2)C1)Nc1ccc2cc1CCc1cncc(c1)Nc1ncc(Cl)c(n1)N2 [Example D105, bis(trifluoroacetate)] | pIC50 | = | 6.67
Clc1cnc2nc1Nc1cccc(c1)CCNc1cccc(c1)N2 [Example D78, bis(trifluoroacetate)] | pIC50 | = | 8.00
O=C(C[C@@H]1CCN(C(=O)c2nc[nH]n2)C1)Nc1ccc2cc1CCc1cncc(c1)Nc1ncc(Cl)c(n1)N2 [Example D131, bis(trifluoroacetate)] | pIC50 | = | 6.90
O=C(COc1ccc2cc1CCc1cncc(c1)Nc1ncc(Cl)c(n1)N2)N1CCN(C(=O)c2ccno2)CC1 [Example D260, bis(trifluoroacetate)] | pIC50 | = | 7.66
O=C(c1ccncc1)N1CCC(CCOc2ccc3cc2CCc2cncc(c2)Nc2ncc(Cl)c(n2)N3)CC1 [Example D181, tris(trifluoroacetate)] | pIC50 | = | 6.50
O=C(CC1CCN(c2ccncc2)C1)Nc1ccc2cc1CCc1cncc(c1)Nc1ncc(Cl)c(n1)N2 (stereo not drawn) [Example D157, tris(trifluoroacetate)] | pIC50 | < | 6.40
CC(=O)N1CCN(C(=O)COc2ccc3cc2CCc2cncc(c2)Nc2ncc(Cl)c(n2)N3)CC1 [Example D252, bis(trifluoroacetate)] | pIC50 | = | 6.61
O=C(Nc1ccc(F)cc1)N1CCC(CCOc2ccc3cc2CCc2cncc(c2)Nc2ncc(Cl)c(n2)N3)CC1 [Example D168, bis(trifluoroacetate)] | pIC50 | = | 6.59
CS(=O)(=O)N1CCN(c2ccc(-c3cc4cc(c3)Nc3ncc(Cl)c(n3)Nc3cccc(c3)OCC4)cn2)CC1 [Example D38, bis(trifluoroacetate)] | pIC50 | = | 9.05

====

Below, each entry is listed with its recorded pIC50.
- TARGET_ENTITY: TYK2 (Homo sapiens)
- METHOD: TYK2 kinase inhibition (Table A1)
- Assay type: biochemical
- CONDITION_PARAMETERS: Table B1
pIC50: −log10 of the molar value. Counter-ions that a name gives are not always drawn.

COMPOUND | pIC50
Cc1cnc(NC(=O)Nc2ccc3cc2CCc2cccc(c2)Nc2ncc(Cl)c(n2)N3)s1 [Example B248, trifluoroacetate] | 7.60
Clc1cnc2nc1Nc1ccc(CN[C@@H]3CCNC3)c(c1)CCc1cccc(c1)N2 [Example B222, tris(trifluoroacetate)] | 7.27
O=C(Nc1ccc2cc1CCc1cccc(c1)Nc1ncc(Cl)c(n1)N2)N[C@H]1CCN(C(=O)c2ccccc2)C1 [Example B170, trifluoroacetate] | 7.47
NS(=O)(=O)N1CCC(NC(=O)Nc2ccc3cc2CCc2cccc(c2)Nc2ncc(Cl)c(n2)N3)CC1 [Example B183, trifluoroacetate] | 8.15
CCc1cccc(NC(=O)Nc2ccc3cc2CCc2cccc(c2)Nc2ncc(Cl)c(n2)N3)c1 [Example B99, trifluoroacetate] | 7.48
O=C(Nc1ccc2cc1CCc1cccc(c1)Nc1ncc(Cl)c(n1)N2)Nc1ccccc1-c1ccccc1 [Example B130, trifluoroacetate] | 7.19

====

Below, each entry is listed with its recorded IC50.
- TARGET_ENTITY: TYK2 (Homo sapiens, UniProt P29597)
- Sequence (P29597 whole entry): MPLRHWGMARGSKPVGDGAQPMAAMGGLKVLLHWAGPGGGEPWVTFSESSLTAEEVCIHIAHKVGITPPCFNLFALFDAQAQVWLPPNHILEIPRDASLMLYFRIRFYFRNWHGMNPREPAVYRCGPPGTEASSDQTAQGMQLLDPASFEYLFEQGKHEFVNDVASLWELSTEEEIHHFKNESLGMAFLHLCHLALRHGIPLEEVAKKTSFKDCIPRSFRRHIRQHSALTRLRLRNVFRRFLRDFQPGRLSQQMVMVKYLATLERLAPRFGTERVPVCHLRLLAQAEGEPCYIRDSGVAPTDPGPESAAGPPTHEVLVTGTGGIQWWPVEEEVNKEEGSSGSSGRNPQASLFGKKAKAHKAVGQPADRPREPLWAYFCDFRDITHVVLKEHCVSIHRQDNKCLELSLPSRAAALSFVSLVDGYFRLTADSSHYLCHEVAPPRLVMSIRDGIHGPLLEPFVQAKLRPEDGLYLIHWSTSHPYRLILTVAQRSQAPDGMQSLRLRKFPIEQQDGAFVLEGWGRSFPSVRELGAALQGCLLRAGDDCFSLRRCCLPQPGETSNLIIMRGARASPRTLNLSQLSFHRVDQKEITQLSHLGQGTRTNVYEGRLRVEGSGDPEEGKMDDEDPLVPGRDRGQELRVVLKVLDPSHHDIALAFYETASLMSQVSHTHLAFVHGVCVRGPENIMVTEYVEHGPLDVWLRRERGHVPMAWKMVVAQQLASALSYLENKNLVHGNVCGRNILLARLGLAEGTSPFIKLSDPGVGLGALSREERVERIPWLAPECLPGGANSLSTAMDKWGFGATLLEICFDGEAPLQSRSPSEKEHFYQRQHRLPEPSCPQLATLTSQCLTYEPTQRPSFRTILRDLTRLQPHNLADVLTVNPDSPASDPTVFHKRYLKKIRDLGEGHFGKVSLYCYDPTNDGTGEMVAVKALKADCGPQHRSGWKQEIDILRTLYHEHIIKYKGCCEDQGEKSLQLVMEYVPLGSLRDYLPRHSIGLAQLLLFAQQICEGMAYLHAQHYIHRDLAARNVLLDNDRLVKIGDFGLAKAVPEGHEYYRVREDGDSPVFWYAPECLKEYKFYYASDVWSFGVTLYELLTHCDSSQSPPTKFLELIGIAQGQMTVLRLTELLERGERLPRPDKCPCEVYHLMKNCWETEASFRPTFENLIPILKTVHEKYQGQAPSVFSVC
- METHOD: TYK2 kinase inhibition (Table A1)
- Type: biochemical
- CONDITION_PARAMETERS: Table D1
Structures can show the parent of a compound that is named as a salt.

COMPOUND | TARGET_ENTITY | IC50
O=C(C[C@H]1CCCN(C(=O)c2ccccc2)C1)Nc1ccc2cc1CCc1cccc(c1)Nc1ncc(Cl)c(n1)N2 [Example D203, trifluoroacetate] | TYK2 (Homo sapiens, UniProt P29597) | 0.07 µM
O=C(C[C@H]1CCN(c2nc3cccnc3o2)C1)Nc1ccc2cc1CCc1cncc(c1)Nc1ncc(Cl)c(n1)N2 [Example D139, tris(trifluoroacetate)] | TYK2 (Homo sapiens, UniProt P29597) | 0.282 µM
O=C(COc1ccc2cc1CCc1cncc(c1)Nc1ncc(Cl)c(n1)N2)N1CCNCC1 [Example D229, tris(trifluoroacetate)] | TYK2 (Homo sapiens, UniProt P29597) | > 0.4 µM
N#Cc1ccc2cc1OCCSc1cccc(c1)Nc1nc(ncc1Cl)N2 [Example D81, trifluoroacetate] | TYK2 (Homo sapiens, UniProt P29597) | 0.053 µM

====

- TARGET_ENTITY: human JAK2 (a.a. 828-1132) (Homo sapiens, UniProt O60674)
- Construct: JAK2 (a.a. 828-1132); His tag (N); made in house; host or cells: insect cells (baculovirus)
- METHOD: In vitro JAK kinase assay (HTRF, phosphorylation of a biotinylated peptide), JAK2
- Format: biochemical
- CONDITION_PARAMETERS: Table B1
pIC50: −log10 of the molar value. Where a name gives a salt, the structure may show the parent alone.
pIC50 below 8 gives Not satisfied; pIC50 at or above it gives Satisfied.

COMPOUND | CAT
O=C(Nc1cccc(Cl)c1)c1cc2cc(c1)Nc1nc(ncc1Cl)Nc1cccc(c1)CC2 [Example B13, trifluoroacetate] | Not satisfied
CS(=O)(=O)Nc1ccc2cc1CCc1cccc(c1)Nc1ncc(Cl)c(n1)N2 [Example B140, trifluoroacetate] | Satisfied
O=C(Nc1ccc2cc1CCc1cccc(c1)Nc1ncc(Cl)c(n1)N2)c1cnc2ccccc2n1 [Example B72, bis(trifluoroacetate)] | Not satisfied
O=C(O)c1cccc(S(=O)(=O)Nc2ccc3cc2CCc2cccc(c2)Nc2ncc(Cl)c(n2)N3)c1 [Example B159, trifluoroacetate] | Satisfied
O=C(Nc1ccc2cc1CCc1cccc(c1)Nc1ncc(Cl)c(n1)N2)NC1CC1 [Example B240, trifluoroacetate] | Satisfied
O=C(NCCN1CCOCC1)Nc1ccc2cc1CCc1cccc(c1)Nc1ncc(Cl)c(n1)N2 [Example B254, bis(trifluoroacetate)] | Satisfied
O=C(Nc1ccc2cc1CCc1cccc(c1)Nc1ncc(Cl)c(n1)N2)Nc1cccc2ccccc12 [Example B124, trifluoroacetate] | Satisfied
Cn1ccc(C(=O)Nc2ccc3cc2CCc2cccc(c2)Nc2ncc(Cl)c(n2)N3)n1 [Example B31, trifluoroacetate] | Satisfied
O=C(Nc1ccc2cc1CCc1cccc(c1)Nc1ncc(Cl)c(n1)N2)Nc1cccc2c1CCCC2 [Example B109, trifluoroacetate] | Not satisfied

These measurements were taken from patent US8871753B2.
